Provenance of the data: ChEMBL document CHEMBL2434844

- Tested on: Aspergillus flavus
- protocol-summary: Antifungal activity against Aspergillus flavus ATCC 11495 at 10 mg/disc after 48 hrs by disc-diffusion method
- Assay type: functional

compound-smiles: COc1ccc(/C=N/Nc2nc(=S)[nH]c(-c3ccc(F)cc3)c2C#N)cc1
diameter of the inhibition zone (DIZ): 18 mm
--
compound-smiles: Cc1nc2c(C#N)c(-c3ccc(Br)cc3)[nH]c(=S)n2n1
diameter of the inhibition zone (DIZ): 7 mm
--
compound-smiles: N#Cc1c(-c2ccc(F)cc2)[nH]c(=S)n2cnnc12
diameter of the inhibition zone (DIZ): 19 mm
--
compound-smiles: N#Cc1c(-c2ccc(Br)cc2)[nH]c(=S)n2ncnc12
diameter of the inhibition zone (DIZ): 7 mm

* * *

- Tested on: Candida albicans
- protocol-summary: Antifungal activity against Candida albicans ATCC 26555 at 10 mg/disc after 48 hrs by disc-diffusion method
- Format: functional
Active and inactive are the calls of the source. No cut-off for these calls is given here.

compound-smiles: COc1cc(-c2[nH]c(=S)n3nnnc3c2C#N)cc(OC)c1OC
diameter of the inhibition zone (DIZ): inactive
--
compound-smiles: N#Cc1c(-c2ccc(F)cc2)[nH]c(=S)n2ncnc12
diameter of the inhibition zone (DIZ): 8 mm
--
compound-smiles: N#Cc1c(N/N=C/c2ccccc2)nc(=S)[nH]c1-c1ccc(F)cc1
diameter of the inhibition zone (DIZ): 19 mm
--
compound-smiles: Cc1nc2c(C#N)c(-c3ccc(F)cc3)[nH]c(=S)n2n1
diameter of the inhibition zone (DIZ): 8 mm
--
compound-smiles: N#Cc1c(-c2ccc(F)cc2)[nH]c(=S)n2c(=S)[nH]nc12
diameter of the inhibition zone (DIZ): 12 mm
--
compound-smiles: N#Cc1c(-c2ccc(Br)cc2)[nH]c(=S)n2cnnc12
diameter of the inhibition zone (DIZ): 16 mm
--
compound-smiles: COc1cc(-c2[nH]c(=S)n3cnnc3c2C#N)cc(OC)c1OC
diameter of the inhibition zone (DIZ): 17 mm
--
compound-smiles: COc1ccc(/C=N/Nc2nc(=S)[nH]c(-c3ccc(F)cc3)c2C#N)cc1
diameter of the inhibition zone (DIZ): 18 mm
--
compound-smiles: N#Cc1c(-c2ccc(Br)cc2)[nH]c(=S)n2nnnc12
diameter of the inhibition zone (DIZ): inactive
--
compound-smiles: COc1cc(-c2[nH]c(=S)nc(N/N=C/c3ccc(F)cc3)c2C#N)cc(OC)c1OC
diameter of the inhibition zone (DIZ): 16 mm

* * *

- Tested on: Escherichia coli
- protocol-summary: Antibacterial activity against Escherichia coli ATCC 11775 at 10 mg/disc after 48 hrs by disc-diffusion method
- Assay type: functional, DSM 30083 = JCM 1649
Everything with diameter of the inhibition zone (DIZ) lower than 10 mm is No; everything else, including exactly 10 mm, is Yes.

compound-smiles: N#Cc1c(N/N=C/c2ccc(F)cc2)nc(=S)[nH]c1-c1ccc(F)cc1
discrete-label: Yes

compound-smiles: N#Cc1c(NN)nc(=S)[nH]c1-c1ccc(F)cc1
discrete-label: Yes

compound-smiles: N#Cc1c(-c2ccc(Br)cc2)[nH]c(=S)n2nnnc12
discrete-label: Yes

compound-smiles: N#Cc1c(-c2ccc(Br)cc2)[nH]c(=S)n2ncnc12
discrete-label: No

compound-smiles: COc1ccc(/C=N/Nc2nc(=S)[nH]c(-c3ccc(F)cc3)c2C#N)cc1
discrete-label: Yes

compound-smiles: COc1cc(-c2[nH]c(=S)n3ncnc3c2C#N)cc(OC)c1OC
discrete-label: No

compound-smiles: COc1cc(-c2[nH]c(=S)nc(-n3nc(C)cc3C)c2C#N)cc(OC)c1OC
discrete-label: Yes
